Data origin: ChEMBL document CHEMBL1201862

Listed next: entries and their corresponding GI50.
- Tested on: MCF7
- PROTOCOL_DETAILS: NCI tumour cell line growth inhibition, 48 h
Activity calls are given as the source filed them. No stated cut-off is given here; in the data, active = GI50 up to about 1.1 µM and inactive = higher. Peptide text beside a SMILES is read from it. * marks the point of attachment. Boc = CC(C)(C)OC(=O)*; OBn = c1ccc(CO*)cc1; Bn = c1ccc(C*)cc1
QUANTITY: GI50

1. C[C@H]1CC[C@@H]2[C@@H](C)[C@H]3[C@H](C[C@H]4[C@@H]5CC=C6C[C@@H](O)CC[C@]6(C)[C@H]5C[C@H](O)[C@]34C)N2C1 :: > 100 µM (inactive)
2. O=c1oc(-c2ccc(O)cc2)cc2cc(O)ccc12 :: 20.6 µM (inactive)
3. CN1CCN2CCN(C)CCN(CC1)CC2 :: > 100 µM (inactive)
4. C[C@]12CC[C@H]3[C@@H](CCC4=C[C@@H](N5CCCC5)CC[C@@]43C)[C@@H]1C/C(=C\c1ccncc1)[C@@H]2O :: 12.8 µM (inactive)
5. CCOc1ccc(N/C(=C(/C(Cl)=C(/Cl)NCCO)[N+](=O)[O-])n2nnc3ccccc32)cc1 :: 19 µM (inactive)
6. O=C1C(Cl)=C(NCCCN2CCOCC2)C(=O)c2c(O)ccc(O)c21 :: 1.55 µM (inactive)
7. CC(C)CC(NC(=O)C(CCC(=O)OCc1ccccc1)NC(=O)OC(C)(C)C)C(=O)NC(COCc1ccccc1)C(=O)NC(Cc1ccccc1)C(=O)O (configuration not stated) (Boc-E(OBn)LS(Bn)F-OH; configuration not given here) :: > 100 µM (inactive)

----------
- System: SK-MEL-5
- PROTOCOL_DETAILS: NCI tumour cell line growth inhibition, 48 h
Calls of active or inactive are those of the source. Rule as the data show it: active = GI50 up to about 1.1 µM and inactive = higher.
Outcome codes: active, inactive

1) Cc1nc2ccc(Cl)cc2c(Cl)c1CCCl :: inactive
2) C[C@H]1CC[C@@H]2[C@@H](C)[C@H]3[C@H](C[C@H]4[C@@H]5CC=C6C[C@@H](O)CC[C@]6(C)[C@H]5C[C@H](O)[C@]34C)N2C1 :: inactive
3) OCc1ccc(C2CC(c3ccco3)=NN2c2ccccc2)o1 (stereo not given) :: inactive
4) O=C(O)c1cc(NC2=C(Cl)C(=O)c3c(O)ccc(O)c3C2=O)ccc1O :: inactive
5) Cc1ccc(/N=N/c2c(O)c3ccccc3[nH]c2=O)c(S(=O)(=O)N(C)C)c1 :: inactive
6) O=C(NCCC1([N+](=O)[O-])CCN(C(=O)c2ccccc2)CC1)c1ccccc1 :: inactive
7) Cc1cc(N(CCC#N)CCC#N)ccc1/C=C1N=C(/C=C/c2ccccc2)OC(=O)N\1 :: inactive
8) CSc1ncnc2c1cnn2Cc1cn(COCC(O)CO)nn1 (stereo not given) :: inactive
9) CCOC(=O)c1ccc(OCc2nc3cc(C(F)(F)F)ccc3nc2-c2ccccc2)cc1 :: inactive
10) COC(=O)C1=C(C(=O)OC)C2OC1C1C2C2(C)C(C)=C(C)C1(C)[S+]2[O-] (stereo not given) :: inactive
11) CCC(C)(C)/C(CC(O)(C(F)(F)F)C(F)(F)F)=N\O :: inactive
12) CCOc1ccc(NC2=NC(=O)C(CC(=O)Nc3ccccc3[N+](=O)[O-])S2)cc1 (stereo not given) :: inactive
13) CC(C)(C)[Si](C)(C)OC1CCOC1(O)c1ccccn1 (stereo not given) :: inactive
14) CC1=CC(c2ccccc2)n2c(nc3cc4ccccc4cc32)N1 (stereo not given) :: inactive
15) O=C(O)C(O)C(O)C(O)C(O)c1nc2ccccc2s1 (stereo not given) :: inactive
16) CC(=O)OCCCCn1cnc2nc(Nc3ccccc3)nc(Cl)c21 :: inactive
17) C=CCn1c(N)c(C#N)c(C#N)c1CCC :: inactive
18) COc1cc(C2S/C(=C/c3ccccc3)C(=O)N2c2ccc(Cl)cc2)cc(OC)c1OC (stereo not given) :: active
19) CC(=O)OC1COC(Nc2nc(NCc3ccccc3)n(C)c(=O)c2N=O)C(OC(C)=O)C1OC(C)=O (stereo not given) :: inactive
20) N#CC(c1ccccc1)N(CCCCCCN(C(=O)c1ccccc1)C(C#N)c1ccccc1)C(=O)c1ccccc1 (stereo not given) :: inactive

----------
Listed next: entries and their corresponding GI50.
- System: OVCAR-8
- PROTOCOL_DETAILS: NCI tumour cell line growth inhibition, 48 h
Activity calls are given as the source filed them. No stated cut-off is given here; in the data, active = GI50 up to about 1.1 µM and inactive = higher.
QUANTITY: GI50

1. c1ccc(N/N=C2\CC(c3ccccc3)Oc3ccccc32)cc1 (stereo unspecified) :: 39.6 µM (inactive)
2. O=S(=O)(Nc1nccs1)c1ccc([As](=O)(O)O)cc1 :: > 100 µM (inactive)
3. O=C(NCCC1([N+](=O)[O-])CCN(C(=O)c2ccccc2)CC1)c1ccccc1 :: > 100 µM (inactive)
4. O=[As](O)(O)c1cc(/N=N/c2ccc(-c3ccc(/N=N/c4cc([As](=O)(O)O)c(O)cc4O)cc3)cc2)c(O)cc1O :: > 100 µM (inactive)
5. Cc1ccc(NC(=S)SCCC(=O)O)cc1 :: > 100 µM (inactive)
6. CCCCC1=C(Br)C(=C(Br)Br)OC1=O :: 3.17 µM (inactive)

----------
- Tested on: DMS-114
- PROTOCOL_DETAILS: NCI tumour cell line growth inhibition, 48 h
Activity calls are given as the source filed them. No stated cut-off is given here; in the data, active = GI50 up to about 1.1 µM and inactive = higher.
Outcome codes: active, inactive

1. CO[C@@]12CC(=O)/C(=C(O)\C=C\c3ccccc3)C(=O)[C@]1(OC)Cc1ccccc1O2 :: inactive
2. CCC12C=CCN3CCC4(c5cc(C6(C(=O)OC)CCCCCc7c6[nH]c6ccccc76)c(OC)cc5N(C)C4C(O)(C(=O)OC)C1OC(C)=O)C32 (centres undefined) :: inactive
3. COc1ccc(-c2nnc(-c3nsc4ccccc34)o2)cc1 :: inactive
4. CCC(C)(O)c1cn(-c2cccc(S(=O)(=O)O)c2)nn1 (centres undefined) :: inactive
5. O=C(CC(=O)Nc1ccc(Cl)cc1)NNCC(=O)Nc1nc(-c2ccccc2)cs1 :: inactive
6. COC(=O)C1OC(Oc2cc(O)c3c(=O)cc(-c4ccc(O)cc4)oc3c2)C(O)C(O)C1O (centres undefined) :: inactive
7. CCCCCCC(/C=N/O)C(C)(O)CCC (centres undefined) :: inactive
8. CNc1cccc(-c2cc(O)c3cc4c(cc3n2)OCO4)c1 :: active
9. CCOC(=O)NC(=O)c1cn(CCOC(=O)CCCCCCCCC(=O)OCCn2cc(C(=O)NC(=O)OCC)c(=O)[nH]c2=O)c(=O)[nH]c1=O :: inactive

----------
Listed next: entries and their corresponding GI50.
- System: MDA-MB-435
- PROTOCOL_DETAILS: NCI tumour cell line growth inhibition, 48 h
Activity calls are given as the source filed them. No stated cut-off is given here; in the data, active = GI50 up to about 1.1 µM and inactive = higher.
QUANTITY: GI50

1. CCCCC(=O)c1c(O)ccc2c(C)cc(=O)oc12 :: > 100 µM (inactive)
2. COC(=O)c1ccccc1OCc1cc(=O)oc2ccc(C)cc12 :: > 100 µM (inactive)
3. COC(=O)C(COC(=O)/C=C/c1ccc(OC(C)=O)c(OC(C)=O)c1)OC(=O)/C=C/c1ccc(OC(C)=O)c(OC(C)=O)c1 (centres undefined) :: 11 µM (inactive)
4. CCOC(=O)c1ccc(OCc2nc3cc(C(F)(F)F)ccc3nc2-c2ccccc2)cc1 :: > 100 µM (inactive)
5. COP1(=O)NCc2ncccc2O1 (centres undefined) :: > 100 µM (inactive)
6. Cc1cn2c(/C=N/NC(=N)N)c(-c3cccc([N+](=O)[O-])c3)nc2s1 :: 1.82 µM (inactive)
7. C[C@H]1CC[C@@H]2[C@@H](C)[C@H]3[C@H](C[C@H]4[C@@H]5CC=C6C[C@@H](O)CC[C@]6(C)[C@H]5C[C@H](O)[C@]34C)N2C1 :: > 100 µM (inactive)
8. CCCn1c(C23CC4CC(CC(C4)C2)C3)nc2ccc(Cl)cc2c1=O :: 36.6 µM (inactive)
9. C[C@H](CC[C@@H](O)C(C)(C)O)[C@H]1CC[C@@]2(C)[C@@H]3CC=C4[C@@H](CC[C@H](O)C4(C)C)[C@]3(C)C(=O)C[C@]12C :: 37.6 µM (inactive)
10. CC(C)[C@H](NC(=O)[C@@H](O)[C@H](N)Cc1ccccc1)C(=O)N[C@@H](Cc1ccccc1)C(=O)O :: > 100 µM (inactive)
11. Cc1cc2c(cc1Cl)SC(c1ccccc1O)NS2(=O)=O (centres undefined) :: 45.7 µM (inactive)
12. C=CCOc1ccccc1C1(O)c2ccccc2C2=NCCCN21 (centres undefined) :: 30.9 µM (inactive)
13. C[C@]12CC[C@@H]3c4cc(OCC(F)(F)F)c(O)cc4C(=O)C[C@H]3[C@@H]1CC[C@@H]2O :: 1.78 µM (inactive)
14. C=CCn1c(N)c(C#N)c(C#N)c1CCC :: > 100 µM (inactive)
15. COC(=O)c1c2n(c3ccccc13)C[C@H]1OC(C)(C)O[C@@H]21 :: > 100 µM (inactive)
16. CCN1CCC(O)(/C=C/c2ccccc2C)C(C(=O)/C=C/c2ccccc2C)C1 (centres undefined) :: 2.38 µM (inactive)
17. COc1cccc(C2c3cc4c(cc3OC(NNc3ccccc3)C2C)OCO4)c1O (centres undefined) :: 2.59 µM (inactive)
18. CCSc1n/c(=C\c2ccco2)c2nncn12 :: > 100 µM (inactive)
19. [O-][S+](Nc1ccccc1)c1ccc(N2CCOCC2)cc1 (centres undefined) :: 32.7 µM (inactive)
